# experimentalDetails: Cytotoxicity against human A549 cells assessed as cell growth at […] incubated for 48 hrs by Celltiter-Glo luminescence assay relative to control
# Type: cell-based
# Design: dose or concentration left out as unconfirmed
# statedConditions: read-out: Activity
// boundary case: viability at 48 h equal to 60% maps to 0; strictly smaller maps to 1

Some entries whose results are on file:
> print(dat)
                                   molecule  categorylabel
1    O=c1c(O)c(-c2csc3ccccc23)oc2cc(F)ccc12              0
2        COc1ccc2c(=O)c(O)c(-c3sccc3C)oc2c1              0
3  COc1ccc2oc(-c3cn(C)c4ccccc34)c(O)c(=O)c2c1              1
4  COc1ccc2oc(-c3csc4ccccc34)c(OC(=O)C(C)(C)C)c(=O)c2c1              0
5  CCCCCCCCCCCCCCCCOP(=O)([O-])OCC[N+](C)(C)C [MILTEFOSINE]              0

Could you now look at the following molecule, please?
(Q) Strictly below 60% in viability at 48 h? `COc1ccc2c(=O)c(O)c(-c3csc4ccccc34)oc2c1`
(A) 1
